Target: purified 6× His-tagged SARS-CoV-2 spike protein (ELISA coat, Example 12) (SARS-CoV-2, UniProt P0DTC2 14-1213)
Assign pEC50 to each entry below.
Answers are plain numbers, as −log10 of the molar value.

binder="ab35 (scFv, V domains shown) VH: EVQLVESGAEVKKPGESLKISCKGSGYTFTRYWIGWVRQMPGKGLEWMGIIYPGDADTRYSPSFQGHVTISADKSISTAYLQWNSLKASDTAMYYCARLPQYCSRGVCQRWFDPWGQGTLVTVSS VL: EIVLTQSPSSVSASVGDRVTITCRASQGISSWLAWYQQKPGKAPKLLIYAASSLQSGVPSRFSGSGSGTDFTLTISSLQPEDFATYYCQQGNQFPYTFGQGTNLEIK" experimental_result=7.41

Lab note: next binder to report on.
Please report the recorded pEC50 for ab14 (scFv, V domains shown) VH: QVQLQQSGPGLVKPSQTLSLTCAISGDSVSSNSAAWNWIRQSPARGLEWLGRTYYRSRWYNDYAISMKSRITINPDTSKNQFSLQLESVTPEDTAVYYCAREIRGFDYWGQGTLVTVSS VL: QSVLTQPPSASGSPGQSVTISCTGTSSDVGAYNFVSWYQHHPGKAPKLIIYDFNKRPSGVPDRFSGSKSGNTASLTVSGLQADDEADYYCSSYAGSNNFDVVFGGGTKLTVL . 6.81
